# IC50 annotations
- target.desc: rhMAO-A (Homo sapiens (Human), UniProt P21397)
- Sequence (P21397 whole entry): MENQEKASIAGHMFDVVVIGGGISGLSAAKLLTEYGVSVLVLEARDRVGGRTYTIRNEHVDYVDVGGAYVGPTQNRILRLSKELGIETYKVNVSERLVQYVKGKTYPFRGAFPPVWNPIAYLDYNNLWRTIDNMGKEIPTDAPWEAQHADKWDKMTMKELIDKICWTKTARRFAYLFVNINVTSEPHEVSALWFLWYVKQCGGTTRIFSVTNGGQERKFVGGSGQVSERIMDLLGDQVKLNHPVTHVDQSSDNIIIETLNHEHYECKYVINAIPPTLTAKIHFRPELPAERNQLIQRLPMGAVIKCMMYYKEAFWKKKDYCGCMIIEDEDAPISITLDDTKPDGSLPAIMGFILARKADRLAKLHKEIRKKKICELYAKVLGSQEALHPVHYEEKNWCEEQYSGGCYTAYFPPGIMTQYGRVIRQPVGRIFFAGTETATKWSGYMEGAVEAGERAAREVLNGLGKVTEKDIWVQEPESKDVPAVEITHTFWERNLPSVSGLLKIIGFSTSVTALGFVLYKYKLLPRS
- procedure.summary: MAO-Glo assay, MAO-A inhibition
- Assay type: biochemical
- condition.context: class symbols, ranges defined in μM
parameter: IC50

> print(dat)
                                    molecule  parameter      reading
 1  COc1cccc(CNc2nc3ccc(OC/C(=C/F)CN)cc3o2)c1 [Example 25, 4-methylbenzenesulfonate]       IC50   1 to 10 µM
 2           CCCCc1nc2ccc(NC/C(=C/F)CN)cc2o1       IC50  10 to 30 µM
 3          NC/C(=C\F)COc1ccc2nc(NCCCO)oc2c1       IC50   1 to 10 µM
 4  NC/C(=C\F)COc1ccc2nc(C3CCC(c4ccccc4)CC3)oc2c1 (centres unmarked) [Example 41, 4-methylbenzenesulfonate]       IC50  10 to 30 µM
 5  CN(Cc1ccccc1)c1nc2ccc(OC/C(=C/F)CN)cc2o1 [Example 49, 4-methylbenzenesulfonate]       IC50  10 to 30 µM
 6  CCCCc1nc2ccc(OC/C(=C/F)CN)cc2o1 [Example 1, 4-methylbenzenesulfonate]       IC50     < 0.1 µM
 7  CCCCc1nc2cc(C)c(OC/C(=C/F)CN)cc2o1 [Example 68, 4-methylbenzenesulfonate]       IC50   1 to 10 µM
 8  CCCCn1oc2cc(OC/C(=C/F)CN)ccc2c1=O [Example 9, 4-methylbenzenesulfonate]       IC50  10 to 30 µM
 9        CCCCc1nc2c(F)cc(OC/C(=C/F)CN)cc2o1       IC50   1 to 10 µM
10  CCCCc1nc2ccc(C(=CF)CN)cc2o1 [Example 27, 4-methylbenzenesulfonate]       IC50   1 to 10 µM
11  CC(C)(C)c1nc2ccc(OC/C(=C/F)CN)cc2o1 [Example 50, 4-methylbenzenesulfonate]       IC50  10 to 30 µM
